Assay: Chemical stability of the compound in 0.01 M borate buffer assessed as half life at 100 nM and pH 9.0 by HPLC analysis
Type: physicochemical
# half-life at 0.1 µM per entry
Quick reminder: number only, in min, skip the unit.

[[record]]
smiles_notation = "O=C(NCCCCc1ccccc1)Oc1cccc(-c2ccccc2)c1"
reported_result = 41.7


Query block: half-life at 0.1 µM lookup needed for "O=C(NC12CC3CC(CC(C3)C1)C2)Oc1cccc(-c2ccccc2)c1" , thanks.
Result block: 264

Query block: half-life at 0.1 µM lookup needed for "O=C(NC1CCCCC1)Oc1cccc(-c2ccccc2)c1" , thanks.
Result block: 42.3

====

Assay: Chemical stability of the compound in 0.01 M PBS assessed as compound remaining at pH 7.4 by HPLC analysis; further: time not given here
Settings: buffer
measure: Stability (%)
Quick reminder: number only, in %, skip the unit.

[[record]]
smiles_notation = "NC(=O)c1cccc(-c2cccc(OC(=O)NC3CCCCC3)c2)c1"
reported_result = 40.2


Query block: Stability lookup needed for "O=C(NC1CCC1)Oc1cccc(-c2ccccc2)c1" , thanks.
Result block: 22.6

Query block: Stability lookup needed for "O=C(NCCCCc1ccccc1)Oc1cccc(-c2ccccc2)c1" , thanks.
Result block: 35.9
